- TARGET UNDER TEST: T1, chemokine receptor 5 (CCR5; AC P51681) (human, UniProt P51681 1-352)
- T1 construct: whole, on cells
- T1 sequence (P51681 whole entry, one chain of several): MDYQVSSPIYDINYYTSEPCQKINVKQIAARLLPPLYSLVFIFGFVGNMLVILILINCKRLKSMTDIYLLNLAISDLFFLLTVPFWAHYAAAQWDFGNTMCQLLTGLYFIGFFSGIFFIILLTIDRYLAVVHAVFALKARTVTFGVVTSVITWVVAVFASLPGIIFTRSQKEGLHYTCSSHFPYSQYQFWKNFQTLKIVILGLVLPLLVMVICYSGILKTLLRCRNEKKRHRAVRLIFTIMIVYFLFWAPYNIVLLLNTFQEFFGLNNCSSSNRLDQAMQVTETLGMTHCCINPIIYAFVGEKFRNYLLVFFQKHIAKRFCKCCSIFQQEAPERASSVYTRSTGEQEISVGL
- PROTOCOL DETAILS: radioligand competition, 125I-MIP 1-alpha tracer, CCR5
MEASUREMENT TYPE: Ki (nM)
Answer format: numeric, nM implied, no suffix.

*Q* Answer with the recorded Ki of processed human chemokine PHC-1 (ligand, Purified from human hemofiltrate or made by tryptic digestion of HCC-1 (1-74); also called HCC-1[9-74]; HCC-1, residues 9-74) GPYHPSECCFTYTTYKIPRQRIMDYYETNSQCSKPGIVFITKRGHSVCTNPSDKWVQDYIKDMKEN only.
*A* 0.04
